- Test description: In vivo pharmacokinetics, mouse
- Measurement context: plasma, 30 mg/kg; Mouse; PO 30 mpk
Quantity: Tmax (min)
Numeric only. Scale: min

Q) Provide one value: measured Tmax of CNc1cc(Nc2cccn(-c3ccccn3)c2=O)nc2c(C(=O)N[C@@H]3CC[C@H]3OC)cnn12 [Compound 1]
A) 24

====

- Tgt: CYP450 3A4 (Homo sapiens, UniProt P08684)
- Sequence (P08684 whole entry): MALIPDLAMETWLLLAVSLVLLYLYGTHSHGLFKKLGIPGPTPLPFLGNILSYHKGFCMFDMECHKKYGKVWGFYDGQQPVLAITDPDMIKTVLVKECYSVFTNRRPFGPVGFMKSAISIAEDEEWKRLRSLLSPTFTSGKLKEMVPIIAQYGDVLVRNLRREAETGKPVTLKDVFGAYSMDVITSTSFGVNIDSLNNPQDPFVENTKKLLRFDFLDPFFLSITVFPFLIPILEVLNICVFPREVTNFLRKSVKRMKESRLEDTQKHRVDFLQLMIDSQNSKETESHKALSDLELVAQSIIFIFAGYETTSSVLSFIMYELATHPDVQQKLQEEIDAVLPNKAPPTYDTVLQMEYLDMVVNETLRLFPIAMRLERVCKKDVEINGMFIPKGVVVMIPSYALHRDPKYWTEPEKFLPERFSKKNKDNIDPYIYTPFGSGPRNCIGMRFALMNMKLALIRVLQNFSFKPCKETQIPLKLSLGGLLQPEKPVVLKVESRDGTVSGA
- Test description: CYP450 inhibition, 3A4
- Assay type: in vitro ADME
- Measurement context: 3A4 (M)
Quantity: IC50

Q) Provide one value: measured IC50 of `CNc1cc(Nc2cccn(-c3ccccn3)c2=O)nc2c(C(=O)N[C@@H]3CC[C@H]3OC)cnn12`
A) > 8e-06 M

====

- Test description: In vivo pharmacokinetics, rat
- Measurement context: rat, plasma
Quantity: half-life

Q) Provide one value: measured half-life of `CNc1cc(Nc2cccn(-c3ccccn3)c2=O)nc2c(C(=O)N[C@@H]3CC[C@H]3OC)cnn12`
A) 1.2 h

====

- Test description: In vivo pharmacokinetics, rat
- Measurement context: plasma, 1 mg/kg; Rat; 1 mpk IV dose; read-out: Vss
Quantity: Vd
Respond with the figure and its unit, in that order.

Q) Provide one value: measured Vd of `CNc1cc(Nc2cccn(-c3ccccn3)c2=O)nc2c(C(=O)N[C@@H]3CC[C@H]3OC)cnn12`
A) 1.6 L/kg

====

- Test description: Kinetic solubility
- Format: physicochemical
- Measurement context: kinetic from dmso stock
Quantity: solubility kinetic

Q) Provide one value: measured solubility kinetic of `CNc1cc(Nc2cccn(-c3ccccn3)c2=O)nc2c(C(=O)N[C@@H]3CC[C@H]3OC)cnn12`
A) 32 µM

====

- Test description: clinical
- Measurement context: human, in vivo, 75 mg
Quantity: Cmax

Q) Provide one value: measured Cmax of `CNc1cc(Nc2cccn(-c3ccccn3)c2=O)nc2c(C(=O)N[C@@H]3CC[C@H]3OC)cnn12`
A) 21.6 to 237 ng/mL

====

- Test description: In vivo pharmacokinetics, cyno
- Measurement context: cynomolgus monkey, in vivo, 1 mg/kg; Cyno; 1 mpk IV dose; read-out: Clp, obs
Quantity: clearance

Q) Provide one value: measured clearance of CNc1cc(Nc2cccn(-c3ccccn3)c2=O)nc2c(C(=O)N[C@@H]3CC[C@H]3OC)cnn12 [Compound 1]
A) 7 mL/min/kg

====

- Test description: In vivo pharmacokinetics, dog
- Measurement context: plasma, 1 mg/kg; Dog; 1 mpk IV dose; read-out: Clp, obs
Quantity: clearance (mL/min/kg)
Numeric only. Scale: mL/min/kg

Q) Provide one value: measured clearance of `CNc1cc(Nc2cccn(-c3ccccn3)c2=O)nc2c(C(=O)N[C@@H]3CC[C@H]3OC)cnn12`
A) 14

====

- Test description: In vivo pharmacokinetics, rat
- Measurement context: plasma, 10 mg/kg; Rat; PO 10 mpk
Quantity: Tmax (h)
Numeric only. Scale: h

Q) Provide one value: measured Tmax of `CNc1cc(Nc2cccn(-c3ccccn3)c2=O)nc2c(C(=O)N[C@@H]3CC[C@H]3OC)cnn12`
A) 1.7

====

- Test description: In vivo pharmacokinetics, mouse
- Measurement context: plasma, 1 mg/kg; Mouse; 1 mpk IV dose; read-out: Clp, obs
Quantity: clearance
Respond with the figure and its unit, in that order.

Q) Provide one value: measured clearance of `CNc1cc(Nc2cccn(-c3ccccn3)c2=O)nc2c(C(=O)N[C@@H]3CC[C@H]3OC)cnn12`
A) 16 mL/min/kg
